Data origin: ChEMBL document CHEMBL1221229

# experimental.protocol: Cytotoxicity against african green monkey Vero cells after 3 days by MTT assay
# Type: cell-based
# conditions: chlorocebus sabaeus, read-out: MNCC
assay.endpoint: MNTC at 72 h

These recorded examples may help you get a feel for the data.
>>> print(df.to_string())
                                   molecule  measurement
0  O=c1c(O[C@@H]2O[C@H](CO)[C@@H](O)[C@H](O)[C@H]2O[C@@H]2OC[C@@H](O)[C@H](O)[C@H]2O)c(-c2ccc(O)c(O)c2)oc2cc(O)cc(O)c12       370 µM
1  O=c1cc(-c2cc(O)c(O)c(O)c2)oc2cc(O)cc(O)c12 [TRICETIN]        40 µM
2     O=C(O)c1cc(O)c(O)c(O)c1 [GALLIC ACID]       590 µM
3  O=c1cc(-c2cc(O)c(O)c(O[C@@H]3O[C@H](CO)[C@@H](O)[C@H](O)[C@H]3O)c2)oc2cc(O)cc(O)c12       430 µM
4  COc1c(O)cc2c(=O)oc3c(O[C@@H]4O[C@@H](C)[C@H](O)[C@@H](O)[C@H]4O)c(O)cc4c(=O)oc1c2c34       430 µM

Value sought for every listed molecule: MNTC at 72 h.
1. O=C[C@H](O)[C@@H](O)[C@H](O)[C@H](O)COC(=O)c1cc(O)c(O)c(O)c1
2. O=c1cc(-c2ccc(O)c(O[C@@H]3O[C@H](CO)[C@@H](O)[C@H](O)[C@H]3O)c2)oc2cc(O)cc(O)c12
3. CC(C)(O)C1CC=C(C(=O)O)CC1 (racemic)

Marked response:
1. 9 µM
2. 450 µM
3. > 1090 µM
